system: PTP1B; experiment: Phosphatase activity of PTP1B constructs against pNPP (enzyme assay); format: biochemical, human; details: pNPP substrate, pH 7.5, 0.015 μM PTP1B (FIG. 27, 32A, 32B)

{"Molecule": "PTP1BK292A: PTP1B1-301 mutant with point mutation in the α7 helix (protein, UniProt P18031 1-301, looked up, variant K292A) MEMEKEFEQIDKSGSWAAIYQDIRHEASDFPCRVAKLPKNKNRNRYRDVSPFDHSRIKLHQEDNDYINASLIKMEEAQRSYILTQGPLPNTCGHFWEMVWEQKSRGVVMLNRVMEKGSLKCAQYWPQKEEKEMIFEDTNLKLTLISEDIKSYYTVRQLELENLTTQETREILHFHYTTWPDFGVPESPASFLNFLFKVRESGSLSPEHGPVVVHCSAGIGRSGTFCLADTCLLLMDKRKDPSSVDIKKVLLEMRKFRMGLIQTADQLRFSYLAVIEGAKFIMGDSSVQDQWAELSHEDLEP", "Km / µM": 380}
{"Molecule": "PTP1BS295A: PTP1B1-301 mutant with point mutation in the α7 helix (protein, UniProt P18031 1-301, looked up, variant S295A) MEMEKEFEQIDKSGSWAAIYQDIRHEASDFPCRVAKLPKNKNRNRYRDVSPFDHSRIKLHQEDNDYINASLIKMEEAQRSYILTQGPLPNTCGHFWEMVWEQKSRGVVMLNRVMEKGSLKCAQYWPQKEEKEMIFEDTNLKLTLISEDIKSYYTVRQLELENLTTQETREILHFHYTTWPDFGVPESPASFLNFLFKVRESGSLSPEHGPVVVHCSAGIGRSGTFCLADTCLLLMDKRKDPSSVDIKKVLLEMRKFRMGLIQTADQLRFSYLAVIEGAKFIMGDSSVQDQWKELAHEDLEP", "Km / µM": 800}
